tested on: Epidermal growth factor receptor (Homo sapiens), P00533 [L861Q]; conditions: at 1 µM
Sequence (P00533 whole entry L861Q): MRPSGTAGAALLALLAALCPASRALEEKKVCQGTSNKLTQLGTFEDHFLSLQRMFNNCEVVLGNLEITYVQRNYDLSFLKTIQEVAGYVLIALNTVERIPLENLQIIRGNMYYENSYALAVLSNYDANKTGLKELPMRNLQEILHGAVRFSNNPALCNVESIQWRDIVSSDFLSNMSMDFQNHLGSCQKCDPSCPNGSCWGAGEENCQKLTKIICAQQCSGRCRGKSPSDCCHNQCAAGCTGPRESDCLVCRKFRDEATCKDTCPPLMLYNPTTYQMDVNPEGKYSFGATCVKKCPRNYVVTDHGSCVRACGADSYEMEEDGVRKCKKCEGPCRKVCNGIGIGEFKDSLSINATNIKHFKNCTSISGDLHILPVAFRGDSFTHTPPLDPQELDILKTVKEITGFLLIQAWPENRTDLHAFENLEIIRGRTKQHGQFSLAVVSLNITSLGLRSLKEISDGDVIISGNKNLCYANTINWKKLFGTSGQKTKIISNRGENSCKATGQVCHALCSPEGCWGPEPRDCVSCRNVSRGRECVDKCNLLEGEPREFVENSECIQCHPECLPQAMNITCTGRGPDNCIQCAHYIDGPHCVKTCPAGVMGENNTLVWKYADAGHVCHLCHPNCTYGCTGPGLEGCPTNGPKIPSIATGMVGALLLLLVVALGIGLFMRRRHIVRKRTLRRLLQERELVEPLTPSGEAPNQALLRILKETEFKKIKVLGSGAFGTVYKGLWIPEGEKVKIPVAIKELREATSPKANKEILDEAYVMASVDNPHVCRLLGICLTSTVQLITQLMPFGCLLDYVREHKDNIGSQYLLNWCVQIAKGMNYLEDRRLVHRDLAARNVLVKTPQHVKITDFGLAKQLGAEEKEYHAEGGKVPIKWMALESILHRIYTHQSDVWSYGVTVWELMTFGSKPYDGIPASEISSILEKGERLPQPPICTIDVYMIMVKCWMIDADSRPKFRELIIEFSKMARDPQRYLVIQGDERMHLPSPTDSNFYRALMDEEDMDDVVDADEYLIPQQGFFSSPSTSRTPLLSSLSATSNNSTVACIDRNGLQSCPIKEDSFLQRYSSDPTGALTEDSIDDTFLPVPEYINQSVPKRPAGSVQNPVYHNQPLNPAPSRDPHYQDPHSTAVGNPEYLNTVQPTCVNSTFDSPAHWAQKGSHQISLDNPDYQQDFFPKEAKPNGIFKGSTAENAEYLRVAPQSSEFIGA

sample smiles: C[C@@H](Oc1cc(-n2cnc3ccc(OC4CCN(C)CC4)cc32)sc1C(N)=O)c1ccccc1Cl
system under test: Epidermal growth factor receptor (Homo sapiens), P00533 [L861Q]
inhibition [%]: 4.46

sample smiles: CCS(=O)(=O)c1ccc(OC)c(Nc2ncc(-c3ccccc3Cl)o2)c1
system under test: Epidermal growth factor receptor (Homo sapiens), P00533 [L861Q]
inhibition [%]: 1.22

sample smiles: NC(=O)c1cc(-c2ccncc2)cc(-c2ccccc2)c1N
system under test: Epidermal growth factor receptor (Homo sapiens), P00533 [L861Q]
inhibition [%]: 11.9

sample smiles: CCS(=O)(=O)c1ccc(OC)c(Nc2ncc(-c3cccc(-c4ccccc4F)c3)o2)c1
system under test: Epidermal growth factor receptor (Homo sapiens), P00533 [L861Q]
inhibition [%]: 24.4

The measurements presented in this section are drawn from ChEMBL document CHEMBL1961873.
